Quick reference: POTASSIUM of the listed items.
Species on record: Rattus norvegicus
assayComment: DrugMatrix - Regimen: Daily Repeat
Format: toxicity, organism-based, Sprague-Dawley
Design: regimen Daily Repeat, gender Male, age 6-8 weeks
testConditions: in vivo, po, 0 mg/kg, 120 h, tissue Plasma, route oral GAVAGE, dose level Control, time 5 day, vehicle 100 % WATER
reportedProperty: POTASSIUM (MEQ/L)

molecule | unitAbbreviation | valueObserved
COc1ccc(C(CN(C)C)C2(O)CCCCC2)cc1 (centres undefined) | MEQ/L | 7.09
CC1COc2c(N3CCN(C)CC3)c(F)cc3c(=O)c(C(=O)O)cn1c23 (centres undefined) | MEQ/L | 6.81
CNCCC=C1c2ccccc2CCc2ccccc21 | MEQ/L | 6.39
Cn1cnc([N+](=O)[O-])c1Sc1ncnc2nc[nH]c12 | MEQ/L | 6.17
Clc1ccc(C(c2ccccc2Cl)C(Cl)Cl)cc1 (centres undefined) | MEQ/L | 6.73
CN1CCN(C(=O)OC2c3nccnc3C(=O)N2c2ccc(Cl)cn2)CC1 (centres undefined) | MEQ/L | 6.11
Fc1ccc([C@@H]2CCNC[C@H]2COc2ccc3c(c2)OCO3)cc1 | MEQ/L | 6
C[C@]12Cc3c[nH]nc3C[C@@H]1CC[C@@H]1[C@@H]2CC[C@@]2(C)[C@H]1CC[C@]2(C)O | MEQ/L | 6
Cc1cc(NS(=O)(=O)c2ccc(N)cc2)no1 | MEQ/L | 7.09

###

Quick reference: LEUKOCYTE COUNT of the listed items.
Species: Rattus norvegicus
assayComment: DrugMatrix - Regimen: Daily Repeat
Type: toxicity, organism-based, Sprague-Dawley
Set-up: regimen Daily Repeat, gender Male, age 6-8 weeks
testConditions: in vivo, po, 0 mg/kg, 72 h, tissue Blood, route oral GAVAGE, dose level Control, time 3 day, vehicle 100 % WATER
reportedProperty: LEUKOCYTE COUNT (x10E3/uL)

molecule | reportedProperty | valueObserved
CC1(C)S[C@@H]2[C@H](NC(=O)[C@H](N)c3ccc(O)cc3)C(=O)N2[C@H]1C(=O)O | LEUKOCYTE COUNT | 16.3
Cn1cnc([N+](=O)[O-])c1Sc1ncnc2nc[nH]c12 | LEUKOCYTE COUNT | 15.1
CC1COc2c(N3CCN(C)CC3)c(F)cc3c(=O)c(C(=O)O)cn1c23 (stereo not given) | LEUKOCYTE COUNT | 11.48
NC(=O)c1ncn([C@@H]2O[C@H](CO)[C@@H](O)[C@H]2O)n1 | LEUKOCYTE COUNT | 14.9
CNCCC=C1c2ccccc2CCc2ccccc21 | LEUKOCYTE COUNT | 14.02
CN1CCN(C(=O)OC2c3nccnc3C(=O)N2c2ccc(Cl)cn2)CC1 (stereo not given) | LEUKOCYTE COUNT | 13.43
CN1CCC[C@H]1c1cccnc1 | LEUKOCYTE COUNT | 11.48
NNC(=O)c1ccncc1 | LEUKOCYTE COUNT | 11.83
NCC1(CC(=O)O)CCCCC1 | LEUKOCYTE COUNT | 13.43
O=C1NC(=O)C(c2ccccc2)(c2ccccc2)N1 | LEUKOCYTE COUNT | 14.02

###

Quick reference: ABSOLUTE LYMPHOCYTE of the listed items.
Species on record: Rattus norvegicus
assayComment: DrugMatrix - Regimen: Daily Repeat
Assay type: toxicity, organism-based, Sprague-Dawley
Design: regimen Daily Repeat, gender Male, age 6-8 weeks
testConditions: in vivo, ip, 0 mg/kg, 120 h, tissue Blood, route intraperitoneal, dose level Control, time 5 day, vehicle 100 % SALINE
reportedProperty: ABSOLUTE LYMPHOCYTE (cells/µL)

substance | valueObserved
GOLD SODIUM THIOMALATE | 6630
CISPLATIN | 6630
CARBOPLATIN | 6630

###

Quick reference: ABSOLUTE BASOPHIL of the listed items.
Species on record: Rattus norvegicus
assayComment: DrugMatrix - Regimen: Daily Repeat
Type: toxicity, organism-based, Sprague-Dawley
Set-up: regimen Daily Repeat, gender Male, age 6-8 weeks
testConditions: in vivo, po, 0 mg/kg, 120 h, tissue Blood, route oral GAVAGE, dose level Control, time 5 day, […]

compound | ABSOLUTE BASOPHIL
COC1=CC(=O)C[C@@H](C)[C@]12Oc1c(Cl)c(OC)cc(OC)c1C2=O | 0 CELLS/uL
CN(C)CCCC1(c2ccc(F)cc2)OCc2cc(C#N)ccc21 (stereo unspecified) | 0 CELLS/uL
CC(=O)[C@H]1CC[C@H]2[C@@H]3CCC4=CC(=O)CC[C@]4(C)[C@H]3CC[C@]12C | 0 CELLS/uL
C=CCN | 33.3 cells/µL
CCCC[C@@H](CC)COC(=O)c1ccccc1C(=O)OC[C@@H](CC)CCCC [BIS(2-ETHYLHEXYL)PHTHALATE] | 0 CELLS/uL
CSc1ccc2c(c1)N(CCC1CCCCN1C)c1ccccc1S2 (stereo unspecified) | 0 CELLS/uL

###

Species on record: Rattus norvegicus
assayComment: DrugMatrix - Regimen: Daily Repeat
Format: toxicity, organism-based, Sprague-Dawley
Parameters: regimen Daily Repeat, gender Male, age 6-8 weeks
testConditions: in vivo, ip, 8 mg/kg, […], tissue Blood, route intraperitoneal, dose level High, time 28 day, vehicle 100 % SALINE
reportedProperty: ABSOLUTE EOSINOPHIL (cells/µL)

substance | unitAbbreviation | valueObserved
GOLD SODIUM THIOMALATE | cells/µL | 71

###

Species: Rattus norvegicus
assayComment: DrugMatrix - Regimen: Daily Repeat
Type: toxicity, organism-based, Sprague-Dawley
Parameters: regimen Daily Repeat, gender Male, age 6-8 weeks
testConditions: in vivo, po, 0 mg/kg, 120 h, tissue Plasma, route oral GAVAGE, dose level Control, time 5 day, […]
reportedProperty: ASPARTATE AMINOTRANSFERASE

molecule | reportedProperty | valueObserved
c1ccc2[nH]c(-c3cscn3)nc2c1 | ASPARTATE AMINOTRANSFERASE | 83.33 u/L
Oc1c(Cl)cc(Cl)cc1Sc1cc(Cl)cc(Cl)c1O | ASPARTATE AMINOTRANSFERASE | 122.83 u/L
COC1=CC(=O)C[C@@H](C)[C@]12Oc1c(Cl)c(OC)cc(OC)c1C2=O | ASPARTATE AMINOTRANSFERASE | 93.67 u/L
CC(C)n1c(/C=C/C(O)CC(O)CC(=O)O)c(-c2ccc(F)cc2)c2ccccc21 (centres undefined) | ASPARTATE AMINOTRANSFERASE | 122.83 u/L
CCCC[C@@H](CC)COC(=O)c1ccccc1C(=O)OC[C@@H](CC)CCCC [BIS(2-ETHYLHEXYL)PHTHALATE] | ASPARTATE AMINOTRANSFERASE | 83.33 u/L
O=[N+]([O-])c1cc([As](=O)(O)O)ccc1O | ASPARTATE AMINOTRANSFERASE | 78.6 u/L
COc1ccc2c(c1)c(CC(=O)OCC(=O)O)c(C)n2C(=O)c1ccc(Cl)cc1 | ASPARTATE AMINOTRANSFERASE | 96.83 u/L
Cn1cnc([N+](=O)[O-])c1Sc1ncnc2nc[nH]c12 | ASPARTATE AMINOTRANSFERASE | 81.33 u/L
CN(C)CCCC1(c2ccc(F)cc2)OCc2cc(C#N)ccc21 (centres undefined) | ASPARTATE AMINOTRANSFERASE | 83.33 u/L

###

Quick reference: BLOOD UREA NITROGEN of the listed items.
Species: Rattus norvegicus
assayComment: DrugMatrix - Regimen: Daily Repeat
Type: toxicity, organism-based, Sprague-Dawley
Design: regimen Daily Repeat, gender Male, age 6-8 weeks
testConditions: in vivo, po, 0 mg/kg, 72 h, tissue Plasma, route oral GAVAGE, dose level Control, time 3 day, vehicle 100 % WATER

molecule | unitAbbreviation | BLOOD UREA NITROGEN
NCC1(CC(=O)O)CCCCC1 | mg/dL | 15.17
C[C@]12Cc3c[nH]nc3C[C@@H]1CC[C@@H]1[C@@H]2CC[C@@]2(C)[C@H]1CC[C@]2(C)O | mg/dL | 13.17
NNC(=O)c1ccncc1 | mg/dL | 15.33
O=C1NC(=O)C(c2ccccc2)(c2ccccc2)N1 | mg/dL | 14.67
CC1COc2c(N3CCN(C)CC3)c(F)cc3c(=O)c(C(=O)O)cn1c23 (centres undefined) | mg/dL | 14.5
Fc1ccc([C@@H]2CCNC[C@H]2COc2ccc3c(c2)OCO3)cc1 | mg/dL | 13.17
CC(C)(S)[C@@H](N)C(=O)O | mg/dL | 13.67
Cn1cnc([N+](=O)[O-])c1Sc1ncnc2nc[nH]c12 | mg/dL | 13.5
Clc1ccc(C(c2ccccc2Cl)C(Cl)Cl)cc1 (centres undefined) | mg/dL | 12.67
COc1cc2c(N3CCN(C(=O)Nc4ccc(OC(C)C)cc4)CC3)ncnc2cc1OCCCN1CCCCC1 | mg/dL | 16.33
CNCCC=C1c2ccccc2CCc2ccccc21 | mg/dL | 14.67
CN1CCN(C(=O)OC2c3nccnc3C(=O)N2c2ccc(Cl)cn2)CC1 (centres undefined) | mg/dL | 15.83
CN1CCC[C@H]1c1cccnc1 | mg/dL | 14.5
CC1(C)S[C@@H]2[C@H](NC(=O)[C@H](N)c3ccc(O)cc3)C(=O)N2[C@H]1C(=O)O | mg/dL | 16
COc1ccc(C(CN(C)C)C2(O)CCCCC2)cc1 (centres undefined) | mg/dL | 15
Cc1cc(NS(=O)(=O)c2ccc(N)cc2)no1 | mg/dL | 15
COc1cccc(C2(O)CCCCC2CN(C)C)c1 (centres undefined) | mg/dL | 13.17
CC(CCc1ccccc1)NCC(O)c1ccc(O)c(C(N)=O)c1 (centres undefined) | mg/dL | 15.5
Nc1ccc(S(=O)(=O)Nc2ccnn2-c2ccccc2)cc1 | mg/dL | 16.5
